Recorded measurements of fold change of EC50, UniBody molecule against IgG1 of the identical clone, one per entry
# experimental system: T1, human c-Met, membrane-bound on cells (human, UniProt P08581 25-1390)
# T1 construct: whole, on cells; A431 cells carry on average 30,000 copies of c-Met per cell (Qifi); also called c-Met expressed on A431 cells; c-Met on A549 cells
# T1 sequence (P08581 25-1390): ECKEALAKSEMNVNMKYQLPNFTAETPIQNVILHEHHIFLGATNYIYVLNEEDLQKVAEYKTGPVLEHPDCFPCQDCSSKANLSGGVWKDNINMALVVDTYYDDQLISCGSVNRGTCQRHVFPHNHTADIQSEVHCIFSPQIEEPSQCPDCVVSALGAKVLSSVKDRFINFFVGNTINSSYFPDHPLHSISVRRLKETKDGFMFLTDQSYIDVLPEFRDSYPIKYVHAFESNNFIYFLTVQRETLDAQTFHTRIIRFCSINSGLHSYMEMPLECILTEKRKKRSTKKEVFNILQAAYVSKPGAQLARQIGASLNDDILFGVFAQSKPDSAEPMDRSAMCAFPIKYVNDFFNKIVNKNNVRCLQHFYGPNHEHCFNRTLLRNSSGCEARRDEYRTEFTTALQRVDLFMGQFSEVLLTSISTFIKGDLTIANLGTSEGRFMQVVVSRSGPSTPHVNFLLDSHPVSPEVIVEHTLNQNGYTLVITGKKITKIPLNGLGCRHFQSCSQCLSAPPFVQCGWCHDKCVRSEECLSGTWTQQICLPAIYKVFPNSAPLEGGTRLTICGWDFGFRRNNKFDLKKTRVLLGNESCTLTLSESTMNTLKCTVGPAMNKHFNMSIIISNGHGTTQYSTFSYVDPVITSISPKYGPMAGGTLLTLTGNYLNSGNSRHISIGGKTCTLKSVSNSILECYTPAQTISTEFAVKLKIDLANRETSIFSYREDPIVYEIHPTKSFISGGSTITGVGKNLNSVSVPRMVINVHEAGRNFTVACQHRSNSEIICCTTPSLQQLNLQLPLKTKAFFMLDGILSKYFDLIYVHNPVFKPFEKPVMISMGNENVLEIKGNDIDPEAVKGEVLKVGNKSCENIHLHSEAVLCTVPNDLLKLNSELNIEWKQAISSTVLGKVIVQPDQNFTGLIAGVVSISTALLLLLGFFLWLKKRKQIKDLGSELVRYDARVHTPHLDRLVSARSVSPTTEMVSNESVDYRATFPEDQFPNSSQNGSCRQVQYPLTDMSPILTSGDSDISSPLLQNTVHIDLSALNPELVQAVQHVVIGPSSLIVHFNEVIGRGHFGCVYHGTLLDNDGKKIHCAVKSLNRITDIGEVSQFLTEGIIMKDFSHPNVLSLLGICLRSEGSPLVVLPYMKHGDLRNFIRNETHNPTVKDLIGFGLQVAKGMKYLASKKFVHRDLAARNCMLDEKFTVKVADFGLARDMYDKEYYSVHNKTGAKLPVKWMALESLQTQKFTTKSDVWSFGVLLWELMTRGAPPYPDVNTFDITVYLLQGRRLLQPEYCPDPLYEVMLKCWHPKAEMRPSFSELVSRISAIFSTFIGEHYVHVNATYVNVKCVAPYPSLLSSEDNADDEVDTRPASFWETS
# assay summary: flow cytometry on A431 cells
# Experimental: The binding of anti-c-Met antibodies and monovalent forms thereof (also termed “UniBody molecules” herein, see Example 5) to A431 cells expressing membrane-bound c-Met (purchased at ATCC, CRL-1555) was tested using flow cytometry (FACS Canto II, BD Biosciences). […] Binding of anti-c-Met antibodies and UniBody molecules was detected using a Phycoerythrin-conjugated goat-anti-human IgG antibody (Jackson). […]
quantity: fold change of EC50, UniBody molecule against IgG1 of the identical clone

binder	recorded measurement
UniBody molecule of antibody 008 (other) VH: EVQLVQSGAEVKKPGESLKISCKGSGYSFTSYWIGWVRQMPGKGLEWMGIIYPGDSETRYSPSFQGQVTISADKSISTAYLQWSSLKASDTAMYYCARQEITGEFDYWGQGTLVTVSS VL: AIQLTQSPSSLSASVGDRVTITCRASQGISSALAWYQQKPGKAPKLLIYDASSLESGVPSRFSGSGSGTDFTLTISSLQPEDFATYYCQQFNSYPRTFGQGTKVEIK	> 2 fold
UniBody molecule of antibody 181 (other) VH: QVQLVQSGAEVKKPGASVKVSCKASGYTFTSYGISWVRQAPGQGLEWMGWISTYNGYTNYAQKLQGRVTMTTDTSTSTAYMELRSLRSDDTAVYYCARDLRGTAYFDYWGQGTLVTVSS VL: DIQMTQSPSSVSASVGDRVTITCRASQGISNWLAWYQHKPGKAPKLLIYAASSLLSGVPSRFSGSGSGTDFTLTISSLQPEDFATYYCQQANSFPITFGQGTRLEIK	< 2 fold
Uni-1016-005 (other, also called UniBody molecule of antibody 005) VH: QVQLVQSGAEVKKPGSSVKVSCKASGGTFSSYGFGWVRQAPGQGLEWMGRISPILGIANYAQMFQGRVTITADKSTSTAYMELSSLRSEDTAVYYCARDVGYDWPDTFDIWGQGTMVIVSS VL: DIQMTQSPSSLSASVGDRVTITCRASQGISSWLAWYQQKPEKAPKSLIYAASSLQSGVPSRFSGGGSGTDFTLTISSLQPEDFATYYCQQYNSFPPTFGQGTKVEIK	> 2 fold

The values you see were collected from patent US20150329642A1.
